assay: NCI Yeast Anticancer Drug Screen. Data for the wt2 strain (AID 169);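 note: 0% = growth of vehicle-treated yeast cultures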; conditions: S. cerevisiae wt2 strain growth inhibition; at 3.7 µM; hits give high values
About 79,000 compounds went through this panel and 15% of them were active in at least one assay; those are over-represented in the sample as a whole.
# key: entry, value: growth inhibition
# number only, unit % dropped from output

# compound, test-readout, readout-number
rows = [
    ("CCSc1c2ccccc2c(-c2nc(F)nc(F)n2)n1CCc1ccccc1", "growth inhibition", -2),
    ("Cc1ccc2c(/C=C/c3ccc(N(C)C)cc3)ccnc2c1C", "growth inhibition", -45),
    ("CC[C@]1(O)C[C@H]2CN(CCc3c([nH]c4ccccc34)[C@@](C(=O)OC)(c3cc4c(cc3OC)N(C)[C@H]3[C@@](O)(C(=O)OC)[C@H](OC(C)=O)[C@]5(CC)C=CCN6CC[C@]43[C@@H]65)C2)C1", "growth inhibition", 0),
    ("Cc1cc(N(CCOS(C)(=O)=O)CCOS(C)(=O)=O)ccc1C=O", "growth inhibition", -46),
    ("Cc1cc(NC(=S)SCc2ccc(Cl)cc2)ccc1Cl", "growth inhibition", 20),
]

GET /value?item= [Cl][Pt+2][Cl].[NH-]CC1(C[NH-])CCCCC1 &field=growth inhibition returns 28

====

# key: entry, value: growth inhibition
experiment: NCI Yeast Anticancer Drug Screen. Data for the bub3 strain (AID 167); details: S. cerevisiae bub3 mutant strain, at 1.2 µM, hits give high values
This is part of a sample that, as a whole, favours compounds with a hit. Of some 79,000 tested, about 15% had one in any assay.
# number only, unit % dropped from output

# compound, test-readout, readout-number
measured = [
    ("Cc1nc2ccc(Br)cc2c(=O)n1-c1ccc(NC2OCC(O)C(O)C2O)cc1 (stereo not drawn)", "growth inhibition", 4),
]

GET /value?item= S=C1NC2=C(CSC/C2=C\c2ccc(Cl)cc2)C(c2ccc(Cl)cc2)N1 (stereo not drawn) &field=growth inhibition returns -39

GET /value?item= CCc1nc2ccc(N=Nc3c(O)ccc4ccccc34)cc2[nH]1 &field=growth inhibition returns -3

GET /value?item= O=c1c(Br)cc2c(-c3ccccc3)c3cc(Br)c(O)c(Br)c3oc-2c1Br &field=growth inhibition returns -4

GET /value?item= COc1ccc(/C(=N/O)c2ccccc2C2=Nc3ccccc3C(NCc3ccccc3)O2)cc1C (stereo not drawn) &field=growth inhibition returns -1

GET /value?item= CCOc1nc(OCC)nc(-c2cccn2-c2ccccc2)n1 &field=growth inhibition returns 19

GET /value?item= COc1ccc2nc3cccc([N+](=O)[O-])c3c(NCCCO)c2c1 &field=growth inhibition returns -9

====

assay: NCI Yeast Anticancer Drug Screen. Data for the sgs1 strain (AID 173);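 note: 0% = growth of vehicle-only control cultures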; details: S. cerevisiae sgs1 mutant, at 1.2 µM, hits give high values
The panel holds about 79,000 compounds, 15% with a hit somewhere; the sample as a whole holds those more often.
test-readout: growth inhibition (%)
# number only, unit % dropped from output

GET /value?item= Clc1ccc(C(c2ccc(Cl)cc2)N2CCNCC2)cc1 &field=growth inhibition returns -26

GET /value?item= Cn1c(COc2ccc(/C=N/NC(=O)CCC(=O)N/N=C/c3ccc(OCc4c[n+]5ccccc5n4C)cc3)cc2)c[n+]2ccccc12 &field=growth inhibition returns 4

GET /value?item= O=C(CSS(=O)(=O)O)c1ccccc1 &field=growth inhibition returns 0

GET /value?item= COc1ccc(C(=O)NCCN(C)C)c2nc3ccccc3cc12 &field=growth inhibition returns 15

GET /value?item= CC(=O)CC[N+](C)(C)C &field=growth inhibition returns -8

GET /value?item= O=C1c2ccccc2C2CCC1c1ccccc12 (configuration not stated) &field=growth inhibition returns -12

GET /value?item= Cc1cnc(/C=N\NC(N)=S)c2cccc(N)c12 &field=growth inhibition returns -39

GET /value?item= COc1ccc2nc(N/N=C/c3sccc3C)cc(C)c2c1 &field=growth inhibition returns -30

GET /value?item= O=C(O)/C=C\C(=O)NNc1ccc(Br)cc1 &field=growth inhibition returns 4

GET /value?item= CC(=O)c1ccc(NCN2C(=O)c3ccccc3C2=O)cc1 &field=growth inhibition returns -25

GET /value?item= CCOC(=O)c1[nH]c2cccc3c2c1CC(Br)C3=O (configuration not stated) &field=growth inhibition returns -8
